Would you mind telling me the reported cytotoxicity at 48 h, 50 µM of each entry?
Experiment: Cytotoxicity against mouse RAW264.7 cells at 50 uM after 48 hrs by MTT assay
Format: cell-based
Details: read-out: INH
Give the value in % but do not write % after it.

Prompt line: Identify measured cytotoxicity at 48 h, 50 µM corresponding to `COc1cnc2ccc(=O)n(CCN3CCN(C(=O)Nc4ccc(C(C)=O)cc4)CC3)c2c1`
Response line: 18.6

Prompt line: Provide cytotoxicity at 48 h, 50 µM value for the following compound: `COc1cnc2ccc(=O)n(CCN3CCN(C(=S)Nc4ccc(C)cc4)CC3)c2c1`
Response line: 26.8

Prompt line: For the compound `COc1cnc2ccc(=O)n(CCN3CCN(C(=S)NCc4ccc(Cl)cc4)CC3)c2c1` , report cytotoxicity at 48 h, 50 µM.
Response line: 24.9

Prompt line: Answer with reported cytotoxicity at 48 h, 50 µM of CO[C@@H]1[C@@H](OC(N)=O)[C@@H](O)[C@H](Oc2ccc3c(O)c(NC(=O)c4ccc(O)c(CC=C(C)C)c4)c(=O)oc3c2C)OC1(C)C [NOVOBIOCIN]
Response line: 19.3

Prompt line: Kindly indicate its recorded cytotoxicity at 48 h, 50 µM. Item: `COc1cnc2ccc(=O)n(CCN3CCN(Cc4ccc(Br)cc4)CC3)c2c1`
Response line: 2.15

Prompt line: Check the records and state cytotoxicity at 48 h, 50 µM for `COc1cnc2ccc(=O)n(CCN3CCN(C(=O)Nc4ccccc4)CC3)c2c1`
Response line: 9.54

Prompt line: Using the record for `COc1cnc2ccc(=O)n(CCN3CCN(C(=O)Nc4ccc([N+](=O)[O-])cc4)CC3)c2c1` , state its measured cytotoxicity at 48 h, 50 µM.
Response line: 5.08

Prompt line: Specify measured cytotoxicity at 48 h, 50 µM for `COc1cnc2ccc(=O)n(CCN3CCN(C(=O)Nc4ccc(C)cc4)CC3)c2c1` .
Response line: 32.3

Prompt line: Indicate its recorded cytotoxicity at 48 h, 50 µM; the compound in question is `COc1cnc2ccc(=O)n(CCN3CCN(C(=S)Nc4ccc(C(C)=O)cc4)CC3)c2c1`
Response line: 3.16

Prompt line: Identify measured cytotoxicity at 48 h, 50 µM associated with `COc1ccc(CNC(=S)N2CCN(CCn3c(=O)ccc4ncc(OC)cc43)CC2)cc1`
Response line: 17.1

Prompt line: Recall and state the measured cytotoxicity at 48 h, 50 µM for `COc1cnc2ccc(=O)n(CCN3CCN(C(=S)Nc4ccc(F)cc4)CC3)c2c1` .
Response line: 21.6

Prompt line: Look up cytotoxicity at 48 h, 50 µM of `COc1cnc2ccc(=O)n(CCN3CCN(Cc4ccc([N+](=O)[O-])cc4)CC3)c2c1` and report it.
Response line: 37.6

Prompt line: Quick one: give measured cytotoxicity at 48 h, 50 µM for `COc1ccc(CNC(=O)N2CCN(CCn3c(=O)ccc4ncc(OC)cc43)CC2)cc1`
Response line: 37.6

Prompt line: Please supply the value of reported cytotoxicity at 48 h, 50 µM for the item `COc1cnc2ccc(=O)n(CCN3CCN(C(=O)Nc4ccc(Cl)cc4)CC3)c2c1`
Response line: 27

Prompt line: Entry `COc1cnc2ccc(=O)n(CCN3CCN(C(=S)Nc4ccc(Cl)cc4)CC3)c2c1` needs its cytotoxicity at 48 h, 50 µM filled in; supply it.
Response line: 6.59

* * *

Target: DNA gyrase subunit A/DNA gyrase subunit B (Mycobacterium tuberculosis (strain ATCC 25618 / H37Rv), UniProt P9WG45+P9WG47)
Sequence (P9WG45 whole entry): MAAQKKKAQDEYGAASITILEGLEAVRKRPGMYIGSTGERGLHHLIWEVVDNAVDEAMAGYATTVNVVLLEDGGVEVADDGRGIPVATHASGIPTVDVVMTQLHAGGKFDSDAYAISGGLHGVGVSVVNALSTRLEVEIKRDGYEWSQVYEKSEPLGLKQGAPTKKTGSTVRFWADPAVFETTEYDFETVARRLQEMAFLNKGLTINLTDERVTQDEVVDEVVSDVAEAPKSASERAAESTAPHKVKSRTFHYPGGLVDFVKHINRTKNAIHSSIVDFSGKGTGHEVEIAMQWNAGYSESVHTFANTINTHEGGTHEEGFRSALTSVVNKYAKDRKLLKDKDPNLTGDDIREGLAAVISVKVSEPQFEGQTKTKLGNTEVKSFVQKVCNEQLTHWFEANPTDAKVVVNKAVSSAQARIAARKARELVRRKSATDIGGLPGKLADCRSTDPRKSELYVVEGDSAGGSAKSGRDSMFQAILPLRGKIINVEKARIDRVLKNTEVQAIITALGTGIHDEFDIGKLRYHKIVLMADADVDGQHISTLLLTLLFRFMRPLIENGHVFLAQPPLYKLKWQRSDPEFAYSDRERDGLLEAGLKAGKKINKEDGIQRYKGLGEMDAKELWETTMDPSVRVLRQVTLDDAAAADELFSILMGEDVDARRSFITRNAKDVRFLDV
Sequence (P9WG47 whole entry): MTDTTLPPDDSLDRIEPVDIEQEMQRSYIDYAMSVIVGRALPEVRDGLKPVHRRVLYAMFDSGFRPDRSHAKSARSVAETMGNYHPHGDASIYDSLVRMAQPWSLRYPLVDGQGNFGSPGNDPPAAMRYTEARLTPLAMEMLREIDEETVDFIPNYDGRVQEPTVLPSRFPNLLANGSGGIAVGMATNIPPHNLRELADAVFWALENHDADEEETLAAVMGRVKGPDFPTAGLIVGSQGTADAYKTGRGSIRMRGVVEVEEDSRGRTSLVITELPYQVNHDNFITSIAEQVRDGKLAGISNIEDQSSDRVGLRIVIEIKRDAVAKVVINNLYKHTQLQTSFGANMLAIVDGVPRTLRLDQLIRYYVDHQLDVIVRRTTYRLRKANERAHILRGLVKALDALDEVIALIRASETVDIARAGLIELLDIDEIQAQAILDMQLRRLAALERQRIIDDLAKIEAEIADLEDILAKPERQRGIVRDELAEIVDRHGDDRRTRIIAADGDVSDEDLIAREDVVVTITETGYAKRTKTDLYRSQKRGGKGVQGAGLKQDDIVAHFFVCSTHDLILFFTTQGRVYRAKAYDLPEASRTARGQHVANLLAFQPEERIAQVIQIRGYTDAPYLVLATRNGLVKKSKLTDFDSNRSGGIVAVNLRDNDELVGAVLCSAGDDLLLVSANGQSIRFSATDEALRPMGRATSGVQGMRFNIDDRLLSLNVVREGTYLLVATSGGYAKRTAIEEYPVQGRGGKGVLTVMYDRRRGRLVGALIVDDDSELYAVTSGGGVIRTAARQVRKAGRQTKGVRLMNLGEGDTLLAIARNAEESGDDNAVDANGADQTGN
Experiment: Inhibition of Mycobacterium tuberculosis DNA gyrase assessed as inhibition of supercoiling activity using relaxed pBR322 plasmid as substrate after 30 mins
readout label: pIC50
By convention, pIC50 is the negative base-10 log of a molar concentration.

Prompt line: Let me know recorded pIC50 for `COc1cnc2ccc(=O)n(CCN3CCN(C(=S)Nc4ccccc4)CC3)c2c1` , thanks.
Response line: 4.81

Prompt line: For the molecule `COc1cnc2ccc(=O)n(CCN3CCN(Cc4ccccc4)CC3)c2c1` , give its measured pIC50 value.
Response line: 6.03

Prompt line: Give the value of pIC50 reported for the following: `COc1cnc2ccc(=O)n(CCN3CCN(Cc4ccc([N+](=O)[O-])cc4)CC3)c2c1`
Response line: 6.01

Prompt line: Answer with the recorded pIC50 of `COc1ccc(CN2CCN(CCn3c(=O)ccc4ncc(OC)cc43)CC2)cc1` only.
Response line: 5.87

* * *

Assay: Cytotoxicity against mouse RAW264.7 cells at 50 uM after 48 hrs by MTT assay
Type: cell-based
Settings: read-out: INH
Label scheme for cytotoxicity at 48 h, 50 µM: lower than 20% is Criterion not met, 20% and above is Criterion met.

Prompt line: Given `COc1cnc2ccc(=O)n(CCN3CCN(C(=O)Nc4ccc(F)cc4)CC3)c2c1` , state whether its cytotoxicity at 48 h, 50 µM is at least 20%.
Response line: Criterion met

Prompt line: cytotoxicity at 48 h, 50 µM >= 20% for `COc1ccc(CN2CCN(CCn3c(=O)ccc4ncc(OC)cc43)CC2)cc1` ?
Response line: Criterion not met

Prompt line: cytotoxicity at 48 h, 50 µM >= 20% for `COc1cnc2ccc(=O)n(CCN3CCN(Cc4ccc(Cl)cc4)CC3)c2c1` ?
Response line: Criterion met

Prompt line: Record `COc1cnc2ccc(=O)n(CCN3CCN(C(=O)Nc4ccc(Br)cc4)CC3)c2c1` ; criterion: cytotoxicity at 48 h, 50 µM no lower than 20%. Met?
Response line: Criterion met

Prompt line: Determine whether this molecule has cytotoxicity at 48 h, 50 µM no lower than 20%: `COc1cnc2ccc(=O)n(CCN3CCN(C(=S)Nc4ccc(Br)cc4)CC3)c2c1`
Response line: Criterion not met

Prompt line: Determine whether measured cytotoxicity at 48 h, 50 µM meets or exceeds 20% for `COc1cnc2ccc(=O)n(CCN3CCN(C(=S)Nc4ccc([N+](=O)[O-])cc4)CC3)c2c1`
Response line: Criterion not met

Prompt line: Does cytotoxicity at 48 h, 50 µM meet or surpass 20% for `COc1cnc2ccc(=O)n(CCN3CCN(Cc4ccccc4)CC3)c2c1` ?
Response line: Criterion not met

Prompt line: Does cytotoxicity at 48 h, 50 µM meet or surpass 20% for `COc1cnc2ccc(=O)n(CCN3CCN(C(=O)NCc4ccc(Cl)cc4)CC3)c2c1` ?
Response line: Criterion met

Prompt line: cytotoxicity at 48 h, 50 µM >= 20% for `COc1cnc2ccc(=O)n(CCN3CCN(C(=S)Nc4ccccc4)CC3)c2c1` ?
Response line: Criterion met

Prompt line: Does cytotoxicity at 48 h, 50 µM meet or surpass 20% for `COc1cnc2ccc(=O)n(CCN3CCN(Cc4ccc(F)cc4)CC3)c2c1` ?
Response line: Criterion met

* * *

Assign pIC50 to each entry below.
Molecular target: DNA gyrase subunit A/DNA gyrase subunit B (Mycobacterium tuberculosis (strain ATCC 25618 / H37Rv), UniProt P9WG45+P9WG47)
Assay: Inhibition of Mycobacterium tuberculosis DNA gyrase assessed as inhibition of supercoiling activity using relaxed pBR322 plasmid as substrate after 30 mins
The meaning of pIC50 here: minus log10 of the concentration in molar units.

Prompt line: Return reported pIC50. Input compound: `COc1cnc2ccc(=O)n(CCN3CCN(C(=O)Nc4ccc(Cl)cc4)CC3)c2c1`
Response line: 6.49

Prompt line: Using known records, supply pIC50 for `COc1cnc2ccc(=O)n(CCN3CCN(C(=O)Nc4ccc([N+](=O)[O-])cc4)CC3)c2c1`
Response line: 6.54

Prompt line: Dear colleague, please send me the reported pIC50 for `COc1cnc2ccc(=O)n(CCN3CCN(C(=S)Nc4ccc(Br)cc4)CC3)c2c1` when you can.
Response line: 6.31

Prompt line: Give pIC50 for the following compound: `COc1cnc2ccc(=O)n(CCN3CCN(C(=S)NCc4ccc(Cl)cc4)CC3)c2c1`
Response line: 6.02

Prompt line: Given `COc1cnc2ccc(=O)n(CCN3CCN(Cc4ccc(Cl)cc4)CC3)c2c1` , respond with its pIC50.
Response line: 6.09

Prompt line: Report measured pIC50; entry is `COc1cnc2ccc(=O)n(CCN3CCN(C(=S)Nc4ccc(F)cc4)CC3)c2c1`
Response line: 4.83

Prompt line: Give the value of pIC50 reported for the following: `COc1cnc2ccc(=O)n(CCN3CCN(C(=S)Nc4ccc(Cl)cc4)CC3)c2c1`
Response line: 4.89

Prompt line: Item `COc1cnc2ccc(=O)n(CCN3CCN(C(=S)Nc4ccc(C(C)=O)cc4)CC3)c2c1` : provide pIC50
Response line: 4.78

Prompt line: Fill in pIC50 for record `COc1cnc2ccc(=O)n(CCN3CCN(Cc4ccc(F)cc4)CC3)c2c1`
Response line: 6.04

Prompt line: Please supply the value of reported pIC50 for the item `COc1cnc2ccc(=O)n(CCN3CCN(C(=O)Nc4ccc(C)cc4)CC3)c2c1`
Response line: 5.57

Prompt line: Tell me pIC50 reported for `COc1ccc(CNC(=O)N2CCN(CCn3c(=O)ccc4ncc(OC)cc43)CC2)cc1`
Response line: 4.84

Prompt line: Report pIC50 for `COc1cnc2ccc(=O)n(CCN3CCN(C(=S)Nc4ccc(C)cc4)CC3)c2c1`
Response line: 4.94

Prompt line: Please give measured pIC50 of the following entry: `COc1cnc2ccc(=O)n(CCN3CCN(C(=O)Nc4ccc(C(C)=O)cc4)CC3)c2c1`
Response line: 4.71

Prompt line: For the compound `COc1cnc2ccc(=O)n(CCN3CCN(C(=O)Nc4ccc(F)cc4)CC3)c2c1` , give its measured pIC50 value.
Response line: 4.94

Prompt line: Determine its reported pIC50: `COc1cnc2ccc(=O)n(CCN3CCN(C(=S)Nc4ccc([N+](=O)[O-])cc4)CC3)c2c1`
Response line: 4.73

Prompt line: Entry `COc1cnc2ccc(=O)n(CCN3CCN(C(=O)NCc4ccc(Cl)cc4)CC3)c2c1` needs its pIC50 filled in; supply it.
Response line: 6.04

Prompt line: Entry `COc1ccc(CNC(=S)N2CCN(CCn3c(=O)ccc4ncc(OC)cc43)CC2)cc1` needs its pIC50 filled in; supply it.
Response line: 4.81

Prompt line: Please look at this compound and report its pIC50: `COc1cnc2ccc(=O)n(CCN3CCN(C(=O)Nc4ccccc4)CC3)c2c1`
Response line: 4.87

Prompt line: Please give measured pIC50 of the following entry: `COc1cnc2ccc(=O)n(CCN3CCN(C(=O)Nc4ccc(Br)cc4)CC3)c2c1`
Response line: 6.12

Prompt line: Name the recorded pIC50 of the item `COc1cnc2ccc(=O)n(CCN3CCN(Cc4ccc(Br)cc4)CC3)c2c1` in your answer.
Response line: 5.19
